System: 958667-338-R-J2-PDC tumor spheroids viability;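 also: spheroids exposed to compounds for seven days before readout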
Experiment: Anticancer human tumor 958667-338-R-J2-PDC patient-derived colon adenocarcinoma cell line growth inhibition [PI3K]
Settings: second compound 0.1 µM; first compound 3.16 µM; hits give low values; spheroids with HUVEC and MSC
Classify by viability, T/C. Ranges: lower range = under 60%, middle range = from 60% up to 90%, upper range = 90% and over

Cn1nccc1Nc1nccc(-c2ccn(C(CO)c3ccc(Cl)c(F)c3)c(=O)c2)n1 (stereo not given) + CC(Nc1ncnc2nc[nH]c12)c1cc2cccc(Cl)c2c(=O)n1-c1ccccc1 :: middle range
CNC(=O)c1ccc(N2C(=S)N(c3ccc(C#N)c(C(F)(F)F)c3)C(=O)C2(C)C)cc1F + Cc1nc(NC(=O)N2CCCC2C(N)=O)sc1-c1ccnc(C(C)(C)C(F)(F)F)c1 :: upper range
CNC(=O)c1ccc(N2C(=S)N(c3ccc(C#N)c(C(F)(F)F)c3)C(=O)C2(C)C)cc1F + CC(Nc1ccc2c(c1)OCCn1cc(N3C(=O)OCC3C(F)F)nc1-2)C(N)=O :: middle range
CC1(C)CCC(Nc2ncc(C(F)(F)F)c(-c3c[nH]c4c(P(C)(C)=O)c(C#N)ccc34)n2)CN1 (stereo not given) + Cc1nc(NC(=O)N2CCCC2C(N)=O)sc1-c1ccnc(C(C)(C)C(F)(F)F)c1 :: lower range
CC1(C)CCC(Nc2ncc(C(F)(F)F)c(-c3c[nH]c4c(P(C)(C)=O)c(C#N)ccc34)n2)CN1 (stereo not given) + CC(Nc1ncnc2nc[nH]c12)c1cc2cccc(Cl)c2c(=O)n1-c1ccccc1 :: middle range
CC1(C)CCC(CN2CCN(c3ccc(C(=O)NS(=O)(=O)c4ccc(NCC5CCOCC5)c([N+](=O)[O-])c4)c(Oc4cnc5[nH]ccc5c4)c3)CC2)=C(c2ccc(Cl)cc2)C1 + CC(Nc1ncnc2nc[nH]c12)c1cc2cccc(Cl)c2c(=O)n1-c1ccccc1 :: upper range

Ask: Exercise: read the entry C#Cc1c(F)ccc2cc(O)cc(-c3ncc4c(N5CC6CCC(C5)N6)nc(OCC56CCCN5CC(F)C6)nc4c3F)c12 (stereo not given) + COc1c(OCCCN2CCOCC2)ccc2c3n(c(=NC(=O)c4cnc(N)nc4)nc12)CCN3 and state which class it falls under.
Reply: lower range

Ask: Exercise: read the entry Cn1nccc1Nc1nccc(-c2ccn(C(CO)c3ccc(Cl)c(F)c3)c(=O)c2)n1 (stereo not given) + COc1c(OCCCN2CCOCC2)ccc2c3n(c(=NC(=O)c4cnc(N)nc4)nc12)CCN3 and state which class it falls under.
Reply: lower range

Ask: Exercise: read the entry C#Cc1c(F)ccc2cc(O)cc(-c3ncc4c(N5CC6CCC(C5)N6)nc(OCC56CCCN5CC(F)C6)nc4c3F)c12 (stereo not given) + CC(Nc1ncnc2nc[nH]c12)c1cc2cccc(Cl)c2c(=O)n1-c1ccccc1 and state which class it falls under.
Reply: middle range

Hey, just so you know, these numbers are from PubChem BioAssay AID1963963.
